Molecular target: Fatty acid synthase (Homo sapiens, UniProt P49327)
Sequence (P49327 whole entry, the tested form may be a part): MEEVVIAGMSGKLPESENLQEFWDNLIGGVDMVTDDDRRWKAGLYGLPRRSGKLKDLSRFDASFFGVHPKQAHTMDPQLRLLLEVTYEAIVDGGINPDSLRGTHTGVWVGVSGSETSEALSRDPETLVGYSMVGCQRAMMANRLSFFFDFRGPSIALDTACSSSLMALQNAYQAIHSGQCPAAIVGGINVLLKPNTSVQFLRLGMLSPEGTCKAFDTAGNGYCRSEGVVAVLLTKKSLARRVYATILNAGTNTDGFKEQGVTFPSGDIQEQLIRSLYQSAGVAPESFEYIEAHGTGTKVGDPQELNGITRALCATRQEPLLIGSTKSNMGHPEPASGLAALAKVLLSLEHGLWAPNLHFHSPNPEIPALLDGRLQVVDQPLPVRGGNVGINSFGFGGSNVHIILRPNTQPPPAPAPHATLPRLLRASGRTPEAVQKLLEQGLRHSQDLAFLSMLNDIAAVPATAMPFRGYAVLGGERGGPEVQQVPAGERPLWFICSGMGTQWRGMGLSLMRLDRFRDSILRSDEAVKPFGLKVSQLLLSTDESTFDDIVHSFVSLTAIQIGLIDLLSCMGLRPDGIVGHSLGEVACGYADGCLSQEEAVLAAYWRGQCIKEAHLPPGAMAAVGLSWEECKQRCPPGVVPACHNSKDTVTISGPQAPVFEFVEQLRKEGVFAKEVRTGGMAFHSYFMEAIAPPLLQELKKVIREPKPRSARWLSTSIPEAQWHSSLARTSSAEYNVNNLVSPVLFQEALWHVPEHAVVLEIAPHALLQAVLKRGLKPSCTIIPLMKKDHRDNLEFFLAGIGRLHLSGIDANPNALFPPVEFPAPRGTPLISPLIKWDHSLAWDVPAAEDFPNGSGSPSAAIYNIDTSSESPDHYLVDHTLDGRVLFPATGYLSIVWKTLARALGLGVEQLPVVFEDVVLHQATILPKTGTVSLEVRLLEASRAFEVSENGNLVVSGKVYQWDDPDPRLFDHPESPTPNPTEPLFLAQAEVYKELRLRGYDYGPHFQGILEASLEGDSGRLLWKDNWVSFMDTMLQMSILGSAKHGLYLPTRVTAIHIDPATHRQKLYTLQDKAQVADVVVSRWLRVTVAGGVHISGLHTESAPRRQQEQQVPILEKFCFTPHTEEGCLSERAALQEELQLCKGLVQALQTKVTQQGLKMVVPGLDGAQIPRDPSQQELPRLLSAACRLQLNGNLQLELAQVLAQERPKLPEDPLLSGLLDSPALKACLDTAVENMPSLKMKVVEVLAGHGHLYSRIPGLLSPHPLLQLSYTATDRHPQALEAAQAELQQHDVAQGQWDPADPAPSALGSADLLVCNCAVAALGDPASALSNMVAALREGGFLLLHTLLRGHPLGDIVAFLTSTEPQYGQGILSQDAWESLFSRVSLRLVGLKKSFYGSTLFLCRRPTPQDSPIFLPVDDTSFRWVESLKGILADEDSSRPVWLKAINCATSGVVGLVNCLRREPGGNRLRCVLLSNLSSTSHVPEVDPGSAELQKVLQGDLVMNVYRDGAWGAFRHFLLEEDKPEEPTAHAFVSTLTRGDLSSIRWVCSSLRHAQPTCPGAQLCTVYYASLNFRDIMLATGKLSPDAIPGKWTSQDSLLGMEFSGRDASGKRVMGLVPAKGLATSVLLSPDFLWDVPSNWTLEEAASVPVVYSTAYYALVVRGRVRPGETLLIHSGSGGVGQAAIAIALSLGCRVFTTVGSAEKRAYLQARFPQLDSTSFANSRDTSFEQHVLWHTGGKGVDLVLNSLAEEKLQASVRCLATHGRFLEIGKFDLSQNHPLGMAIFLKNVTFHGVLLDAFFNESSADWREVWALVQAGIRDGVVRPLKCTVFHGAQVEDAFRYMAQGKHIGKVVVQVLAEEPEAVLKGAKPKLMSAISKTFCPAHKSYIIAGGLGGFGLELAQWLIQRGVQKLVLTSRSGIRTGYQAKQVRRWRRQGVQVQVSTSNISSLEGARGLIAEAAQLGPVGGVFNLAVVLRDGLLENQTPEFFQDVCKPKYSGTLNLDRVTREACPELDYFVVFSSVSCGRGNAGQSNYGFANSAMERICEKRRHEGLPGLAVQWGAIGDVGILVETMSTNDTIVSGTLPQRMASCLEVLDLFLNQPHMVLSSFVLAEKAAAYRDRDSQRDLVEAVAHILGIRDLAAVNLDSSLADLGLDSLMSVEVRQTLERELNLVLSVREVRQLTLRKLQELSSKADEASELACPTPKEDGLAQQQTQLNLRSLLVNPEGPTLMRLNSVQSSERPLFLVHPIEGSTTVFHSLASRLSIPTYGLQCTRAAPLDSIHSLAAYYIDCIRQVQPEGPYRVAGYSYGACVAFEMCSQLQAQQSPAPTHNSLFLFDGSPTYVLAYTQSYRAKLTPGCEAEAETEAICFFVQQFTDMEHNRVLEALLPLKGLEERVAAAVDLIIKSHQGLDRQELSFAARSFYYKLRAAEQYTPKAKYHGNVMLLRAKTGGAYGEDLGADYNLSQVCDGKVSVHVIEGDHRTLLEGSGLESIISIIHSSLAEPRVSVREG
Experiment: FAS thioesterase domain inhibitors, dose response, biochemical, kinetic fluorescence intensity (AID 624326);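 note: rate of fluorescence rise from hydrolysis of a fluorogenic O-methyl fluorescein ester substrate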
Format: functional
Activity calls are given as the source filed them.
Possible outcomes: True (active), False (inactive)

compound	assigned label
O=C1C=CC(=O)C2C1C1(Cl)C(Cl)=C(Cl)C2(Cl)C1(Cl)Cl (centres undefined)	True
Cc1nn(C)cc1C(C(=O)NC1CCCCC1)N(C(=O)Cc1cccs1)c1ccc(C(C)C)cc1 (centres undefined)	True
NC(=NOC(=O)CCC1CCCCC1)c1cccc([N+](=O)[O-])c1	True
COc1ccc(-c2nnc(SCC(=O)Nc3ncc(C(F)(F)F)cc3Cl)n2CC(C)C)cc1	True
COC(=O)c1cc(C(=O)OCC(=O)c2ccc3c(c2)NC(=O)CO3)cc([N+](=O)[O-])c1	False
O=C(NC1CCCCC1)N(c1ccccc1)c1nnc(-c2cccc([N+](=O)[O-])c2)s1	True
O=C(CSc1ncnc2c1cnn2-c1ccccc1)NC1CCS(=O)(=O)C1 (centres undefined)	True
CN(C)CCCNC(=O)CC1C[C@H](C(=O)N2CCOCC2)[C@@]2(CCC3CCCC3)c3[nH]c4ccccc4c3CCN2C1=O (some centres undefined)	True
O=C(CC1C[C@H](C(=O)N2CCOCC2)[C@@]2(CCC3CCCC3)c3[nH]c4ccccc4c3CCN2C1=O)NCc1ccco1 (some centres undefined)	True

----------
Listed here: items and their measured IC50.
Target: Sentrin-specific protease 6 (Homo sapiens);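 note: Luminescence-based dose-response confirmatory assay of SENP6 inhibition, following up an ultra-high-throughput screen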
Sequence (Q9GZR1 whole entry): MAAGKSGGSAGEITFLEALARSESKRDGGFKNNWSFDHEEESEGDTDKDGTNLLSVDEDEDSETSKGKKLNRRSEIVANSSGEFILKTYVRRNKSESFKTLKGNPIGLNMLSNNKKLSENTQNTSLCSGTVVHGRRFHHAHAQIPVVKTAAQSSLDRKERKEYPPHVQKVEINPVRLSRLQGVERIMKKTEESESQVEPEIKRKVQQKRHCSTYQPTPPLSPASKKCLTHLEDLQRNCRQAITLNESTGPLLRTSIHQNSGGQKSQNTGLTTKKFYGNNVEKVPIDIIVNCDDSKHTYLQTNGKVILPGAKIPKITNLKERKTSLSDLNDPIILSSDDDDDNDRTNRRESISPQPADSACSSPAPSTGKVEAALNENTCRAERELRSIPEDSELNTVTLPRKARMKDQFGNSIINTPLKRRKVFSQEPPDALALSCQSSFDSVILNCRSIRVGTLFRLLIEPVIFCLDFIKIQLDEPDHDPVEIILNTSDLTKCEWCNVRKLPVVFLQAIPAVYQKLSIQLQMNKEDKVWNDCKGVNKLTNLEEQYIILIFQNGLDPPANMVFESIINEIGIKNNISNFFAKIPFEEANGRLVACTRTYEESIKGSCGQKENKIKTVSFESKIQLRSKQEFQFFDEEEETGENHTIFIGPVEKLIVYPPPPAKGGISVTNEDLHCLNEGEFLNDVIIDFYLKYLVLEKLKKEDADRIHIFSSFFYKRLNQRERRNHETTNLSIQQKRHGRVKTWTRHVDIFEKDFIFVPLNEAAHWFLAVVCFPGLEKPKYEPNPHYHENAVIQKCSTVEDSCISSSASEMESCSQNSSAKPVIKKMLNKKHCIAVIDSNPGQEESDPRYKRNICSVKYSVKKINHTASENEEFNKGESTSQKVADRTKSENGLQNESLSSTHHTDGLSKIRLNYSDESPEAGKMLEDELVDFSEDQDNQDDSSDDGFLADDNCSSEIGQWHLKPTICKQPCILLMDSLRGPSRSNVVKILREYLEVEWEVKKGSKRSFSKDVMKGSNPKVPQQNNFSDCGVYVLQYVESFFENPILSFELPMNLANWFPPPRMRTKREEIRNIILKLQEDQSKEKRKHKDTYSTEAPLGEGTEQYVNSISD
Type: functional
Calls of active or inactive are those of the source.

compound	IC50
O=C(O)c1ccc(N/N=C/c2ccc(OC(=O)c3ccccc3Cl)cc2)cc1	2.16 µM (active)
Cc1ccc2c(c1)c(=O)c1c3n2CCN(C(=O)CCl)C3CC1 (stereo not given)	8.69 µM (active)
O=C(O)COc1ccccc1/C=N/NC(=O)CSc1nnc(SCc2ccc(Cl)cc2)s1	22.5 µM (active)
NC(=O)C1CCN(C2=C(Cl)C(=O)c3ccccc3C2=O)CC1	5.84 µM (active)
Cc1ccc(C)c(-c2nc3cc(N)ccc3o2)c1	25.2 µM (active)

----------
Target: Hexokinase (Trypanosoma brucei, UniProt Q38C41)
Sequence (Q38C41 whole entry): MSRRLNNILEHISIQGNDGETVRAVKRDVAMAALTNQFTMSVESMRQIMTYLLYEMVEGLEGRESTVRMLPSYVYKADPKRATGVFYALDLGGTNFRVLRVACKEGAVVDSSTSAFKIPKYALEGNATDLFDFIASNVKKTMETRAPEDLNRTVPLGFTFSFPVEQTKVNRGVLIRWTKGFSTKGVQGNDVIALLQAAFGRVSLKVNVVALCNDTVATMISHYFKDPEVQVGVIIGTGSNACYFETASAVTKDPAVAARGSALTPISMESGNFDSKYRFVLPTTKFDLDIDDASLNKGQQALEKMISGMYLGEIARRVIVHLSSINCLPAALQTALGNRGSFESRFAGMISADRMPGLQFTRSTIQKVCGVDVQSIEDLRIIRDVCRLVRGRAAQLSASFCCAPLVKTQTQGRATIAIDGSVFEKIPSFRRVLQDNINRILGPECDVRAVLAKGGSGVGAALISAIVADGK
Assay: Confirmation assay for inhibitors of Trypanosoma brucei hexokinase 1-Analogue-first series. [Related pubchem assays (depositor defined):AID1430, AID1632, AID2516, AID2560, AID2579, AID2600, AID449725, AID492951]
Assay type: functional
The source made the active and inactive calls.
Possible outcomes: t = active, f = inactive

smiles representation	assigned label
COc1ccc(S(=O)(=O)Nc2cc(Cl)ccc2C(=O)O)cc1	f
O=c1ccsn1-c1ccccc1	t
O=C(Cn1sc2ccccc2c1=O)Nc1ccccc1Br	t
CC(C)(C)c1ccc(C(=O)Nc2cc(Cl)c(F)cc2C(=O)O)cc1	t

----------
Target: Replicative DNA helicase DnaB (Mycobacterium tuberculosis)
Sequence (P9WMR3 1-399, added parts left off): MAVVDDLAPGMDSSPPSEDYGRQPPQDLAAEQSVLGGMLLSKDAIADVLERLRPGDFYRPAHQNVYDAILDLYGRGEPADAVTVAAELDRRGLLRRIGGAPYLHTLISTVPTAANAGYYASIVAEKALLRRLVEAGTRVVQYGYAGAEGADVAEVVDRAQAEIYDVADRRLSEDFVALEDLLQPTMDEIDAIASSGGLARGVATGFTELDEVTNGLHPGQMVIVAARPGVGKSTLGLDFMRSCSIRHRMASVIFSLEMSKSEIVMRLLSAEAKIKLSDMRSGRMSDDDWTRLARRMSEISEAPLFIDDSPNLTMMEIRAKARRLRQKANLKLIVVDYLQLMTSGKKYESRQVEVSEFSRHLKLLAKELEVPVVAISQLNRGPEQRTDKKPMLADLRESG
Experiment: DnaB intein splicing inhibitors, dose response, biochemical, cell-free fluorescence (AID 449749)
Assay type: functional
Calls of active or inactive are those of the source.
Possible outcomes: true = active, false = inactive

compound	assigned label
Cc1ccc(-n2nc(C)c3c2OC(N)=C(C#N)C3c2ccccc2F)cc1 (stereo not drawn)	true
Cc1ccc(SCc2n[nH]c3c2C(c2ccc(C)o2)C(C#N)=C(N)O3)cc1 (stereo not drawn)	true
O=C(CCl)N(Cc1ccccc1)c1ccccc1	true
O=C1/C(=C\c2cc([N+](=O)[O-])ccc2O)SC(=S)N1Cc1ccc(Cl)cc1	true
O=C1CC(CC(=O)N/N=C/c2ccccc2[N+](=O)[O-])=NN1	true
CCOC(=O)C1=C(C)n2c(s/c(=C/c3cccc([N+](=O)[O-])c3)c2=O)=NC1c1ccc(O)c(OC)c1 (stereo not drawn)	true
COc1ccc(/C=C2/C(=O)N(c3ccccc3)N=C2C)cc1Br	true
NC(=O)C1CCN(C2=C(Cl)C(=O)c3ccccc3C2=O)CC1	true
CC(C)N=C(S)NC1(C)CCS(=O)(=O)C1 (stereo not drawn)	false
O=C(c1c[nH]c(C(=O)C(Cl)(Cl)Cl)c1)c1ccccc1Cl	true
CC1=NN(c2ccc(C(=O)O)c(N)c2)C(=O)C1	true
CCCc1noc2c1C(c1ccoc1)C(C#N)=C(N)N2 (stereo not drawn)	true
Cc1n[nH]c2c1C(c1ccc3c(c1)OCO3)C(C#N)=C(N)O2 (stereo not drawn)	true
NC1=NN(c2cccc(C(=O)O)c2)C(=O)C1	true
Cc1cccc(N(Cc2cc(O)nc3ccccc23)C(=O)CCl)c1	true
CC1=NN(c2ccccc2)C(=O)/C1=C\c1cn(CCC#N)nc1-c1ccc(Cl)cc1	true
Cc1ccc(-c2csc(NC(=O)CSC3=NCCS3)n2)cc1	true
Cc1ccc(S(=O)(=O)N2CCN(C(=O)c3ccccc3Cc3ccccc3)CC2)c(C)c1	true
Cc1cc(C)cc(Cn2ncc(Cl)c(Cl)c2=O)c1	true
O=Nc1c(O)c2ccccc2c2ccccc12	true
O=C1C(Cl)=C(N2CCOCC2)C(=O)N1c1ccc(Br)cc1	true
O=c1c2ccccc2nc(/C=C/c2cccnc2)n1Cc1ccccc1	true
